Consider the following molecules; for each one, report its Ki.
Molecular target: CDK2/Cyclin A (Homo sapiens, UniProt P24941)
Construct: made in house; host or cells: CDK2: insect cells (baculovirus); cyclin A: E. coli
Test: Inhibition of CDK2/Cyclin A retinoblastoma kinase activity (apparent Ki)
Type: biochemical
Details: read-out: CDK2 Ki
Procedure: Cyclin-dependent kinase activity was measured by quantifying the enzyme-catalyzed, time-dependent incorporation of radioactive phosphate from [^32P]ATP or [^33P]ATP into a protein substrate. […] Radioactivity was quantified by exposing the dried membranes to a phosphorimager. Apparent Ki values were measured by assaying enzyme activity in the presence of different inhibitor compound concentrations and subtracting the background radioactivity measured in the absence of enzyme. […]

Query :: # Ki lookup, item CCNCc1cncc(-c2ccc3[nH]nc(-c4nc(CC)c(C)[nH]4)c3c2)c1C [Example 23]
Result :: < 0.05 µM

Query :: # Ki lookup, item CCNCc1cncc(-c2ccc3[nH]nc(-c4nc(-c5cccc(OC)c5)c[nH]4)c3c2)c1C [Example 35]
Result :: < 0.05 µM

Query :: # Ki lookup, item CCNCc1cncc(-c2ccc3[nH]nc(-c4ncc(C(=O)N5CC=C(c6ccccc6)CC5)[nH]4)c3c2)c1C [Example 67]
Result :: < 0.05 µM

Query :: # Ki lookup, item CCNCc1cncc(-c2ccc3[nH]nc(-c4nc(-c5ccccc5)c(C(=O)NCCOC)[nH]4)c3c2)c1C [Example 3]
Result :: 0.05 to 0.2 µM

Query :: # Ki lookup, item CCNCc1cncc(-c2ccc3[nH]nc(-c4nc(-c5ccccc5)c(C(=O)N5CCC[C@@H]5COC)[nH]4)c3c2)c1C [Example 15]
Result :: > 0.2 µM

Query :: # Ki lookup, item CCNCc1cncc(-c2ccc3[nH]nc(-c4nc(C)c[nH]4)c3c2)c1C [Example 92]
Result :: < 0.05 µM

Query :: # Ki lookup, item CCNCc1cncc(-c2ccc3[nH]nc(-c4ncc[nH]4)c3c2)c1CC [Example 47]
Result :: < 0.05 µM

Query :: # Ki lookup, item Cc1c(N)cncc1-c1ccc2[nH]nc(-c3nc(-c4ccc(F)cc4)c[nH]3)c2c1 [Example 40]
Result :: < 0.05 µM

====

Test system: Cyclin-dependent kinase
Experiment: Cyclin-dependent kinase inhibition, % inhibition at 10 nM (library Examples 99-270)
Type: biochemical
Conditions: 10 nM compound
Consider the following molecules; for each one, report its % Inhib @ 10 nM.
Give the value in % but do not write % after it.

Query :: # % Inhib @ 10 nM lookup, item CCNCc1cncc(-c2ccc3[nH]nc(-c4ncc(C(=O)N5CCOCC5)[nH]4)c3c2)c1C
Result :: 67

Query :: # % Inhib @ 10 nM lookup, item CCNCc1cncc(-c2ccc3[nH]nc(-c4ncc(C(=O)N5CCC(NC(C)=O)C5)[nH]4)c3c2)c1C (stereo not shown)
Result :: 55

Query :: # % Inhib @ 10 nM lookup, item CCNCc1cncc(-c2ccc3[nH]nc(-c4ncc(C(=O)NCCCn5ccnc5)[nH]4)c3c2)c1C
Result :: 39

Query :: # % Inhib @ 10 nM lookup, item CCNCc1cncc(-c2ccc3[nH]nc(-c4ncc(C(=O)NCCN5CCOCC5)[nH]4)c3c2)c1C
Result :: 40

====

System: Cyclin-dependent kinase
Assay: Cyclin-dependent kinase inhibition, % inhibition at 10 nM (library Examples 99-270)
Format: biochemical
Details: 10 nM compound
Quantity Name: % Inhib @ 10 nM (%)
Give the value in % but do not write % after it.

Query :: # % Inhib @ 10 nM lookup, item CCNCc1cncc(-c2ccc3[nH]nc(-c4ncc(C(=O)NCCN(C)CCCCCO)[nH]4)c3c2)c1C [Example 199]
Result :: 25

Query :: # % Inhib @ 10 nM lookup, item CCNCc1cncc(-c2ccc3[nH]nc(-c4ncc(C(=O)NCc5ccc(CN(C)C)cc5)[nH]4)c3c2)c1C [Example 159]
Result :: 28

Query :: # % Inhib @ 10 nM lookup, item CCNCc1cncc(-c2ccc3[nH]nc(-c4ncc(C(=O)N5Cc6ccccc6C5)[nH]4)c3c2)c1C [Example 227]
Result :: 84

Query :: # % Inhib @ 10 nM lookup, item CCNCc1cncc(-c2ccc3[nH]nc(-c4ncc(C(=O)N5CCC(O)(c6ccccc6)CC5)[nH]4)c3c2)c1C [Example 112]
Result :: 80

Query :: # % Inhib @ 10 nM lookup, item CCNCc1cncc(-c2ccc3[nH]nc(-c4ncc(C(=O)NCC5CCCCC5)[nH]4)c3c2)c1C [Example 166]
Result :: 73

Query :: # % Inhib @ 10 nM lookup, item CCNCc1cncc(-c2ccc3[nH]nc(-c4ncc(C(=O)N5CCCCC5Cc5ccccc5)[nH]4)c3c2)c1C (stereo not shown) [Example 233]
Result :: 32

Query :: # % Inhib @ 10 nM lookup, item CCNCc1cncc(-c2ccc3[nH]nc(-c4ncc(C(=O)N5CCN(c6ccccc6C#N)CC5)[nH]4)c3c2)c1C [Example 147]
Result :: 69

Query :: # % Inhib @ 10 nM lookup, item CCNCc1cncc(-c2ccc3[nH]nc(-c4ncc(C(=O)N5CCc6cc(OC)c(OC)cc6C5)[nH]4)c3c2)c1C [Example 121]
Result :: 69

Query :: # % Inhib @ 10 nM lookup, item CCCCN(CCC#N)C(=O)c1cnc(-c2n[nH]c3ccc(-c4cncc(CNCC)c4C)cc23)[nH]1 [Example 164]
Result :: 69

Query :: # % Inhib @ 10 nM lookup, item CCNCc1cncc(-c2ccc3[nH]nc(-c4ncc(C(=O)NCc5ccc(OC(F)F)cc5)[nH]4)c3c2)c1C [Example 248]
Result :: 67

Query :: # % Inhib @ 10 nM lookup, item CCNCc1cncc(-c2ccc3[nH]nc(-c4ncc(C(=O)N5CCN6CCCC6C5)[nH]4)c3c2)c1C (stereo not shown) [Example 209]
Result :: 37

Query :: # % Inhib @ 10 nM lookup, item CCNCc1cncc(-c2ccc3[nH]nc(-c4ncc(C(=O)NCCc5ncn[nH]5)[nH]4)c3c2)c1C [Example 198]
Result :: 55

Query :: # % Inhib @ 10 nM lookup, item CCNCc1cncc(-c2ccc3[nH]nc(-c4ncc(C(=O)N5CCC(C(=O)c6ccc(F)cc6)CC5)[nH]4)c3c2)c1C [Example 142]
Result :: 65

Query :: # % Inhib @ 10 nM lookup, item CCNCc1cncc(-c2ccc3[nH]nc(-c4ncc(C(=O)N(CCN(C)C)Cc5ccccc5)[nH]4)c3c2)c1C [Example 123]
Result :: 54

Query :: # % Inhib @ 10 nM lookup, item CCNCc1cncc(-c2ccc3[nH]nc(-c4ncc(C(=O)NC(CO)CCSC)[nH]4)c3c2)c1C (stereo not shown) [Example 172]
Result :: 36

Query :: # % Inhib @ 10 nM lookup, item CCNCc1cncc(-c2ccc3[nH]nc(-c4ncc(C(=O)NCc5nnc(-c6ccccc6OC)o5)[nH]4)c3c2)c1C [Example 255]
Result :: 40

Query :: # % Inhib @ 10 nM lookup, item CCNCc1cncc(-c2ccc3[nH]nc(-c4ncc(C(=O)N(CC#N)Cc5ccccc5)[nH]4)c3c2)c1C [Example 213]
Result :: 68

Query :: # % Inhib @ 10 nM lookup, item CCNCc1cncc(-c2ccc3[nH]nc(-c4ncc(C(=O)NC5Cc6ccccc6C5)[nH]4)c3c2)c1C [Example 158]
Result :: 56

Query :: # % Inhib @ 10 nM lookup, item CCNCc1cncc(-c2ccc3[nH]nc(-c4ncc(C(=O)N5CCN(CC(=O)N(C)C)CC5)[nH]4)c3c2)c1C [Example 182]
Result :: 40

Query :: # % Inhib @ 10 nM lookup, item CCNCc1cncc(-c2ccc3[nH]nc(-c4ncc(C(=O)N5CCC(C(=O)c6ccccc6)CC5)[nH]4)c3c2)c1C [Example 171]
Result :: 65

Query :: # % Inhib @ 10 nM lookup, item CCNCc1cncc(-c2ccc3[nH]nc(-c4ncc(C(=O)N5CCC(c6nnc(CN(C)C)o6)CC5)[nH]4)c3c2)c1C [Example 257]
Result :: 37

Query :: # % Inhib @ 10 nM lookup, item CCNCc1cncc(-c2ccc3[nH]nc(-c4ncc(C(=O)NCc5ccc(F)c(C(F)(F)F)c5)[nH]4)c3c2)c1C [Example 148]
Result :: 60

Query :: # % Inhib @ 10 nM lookup, item CCNCc1cncc(-c2ccc3[nH]nc(-c4ncc(C(=O)N5CCCC5)[nH]4)c3c2)c1C [Example 138]
Result :: 79

Query :: # % Inhib @ 10 nM lookup, item CCNCc1cncc(-c2ccc3[nH]nc(-c4ncc(C(=O)N5CCC(c6ccnc(NCC)n6)CC5)[nH]4)c3c2)c1C [Example 252]
Result :: 41

Query :: # % Inhib @ 10 nM lookup, item CCNCc1cncc(-c2ccc3[nH]nc(-c4ncc(C(=O)N5CCCN(Cc6ccc(F)cc6)CC5)[nH]4)c3c2)c1C [Example 222]
Result :: 30

Query :: # % Inhib @ 10 nM lookup, item CCNCc1cncc(-c2ccc3[nH]nc(-c4ncc(C(=O)N5CCCC(Cc6ncccn6)CC5)[nH]4)c3c2)c1C (stereo not shown) [Example 261]
Result :: 30

Query :: # % Inhib @ 10 nM lookup, item CCNCc1cncc(-c2ccc3[nH]nc(-c4ncc(C(=O)NC5CCC5)[nH]4)c3c2)c1C [Example 135]
Result :: 67

Query :: # % Inhib @ 10 nM lookup, item CCNCc1cncc(-c2ccc3[nH]nc(-c4ncc(C(=O)N[C@@H](CO)[C@@H](O)c5ccc(SC)cc5)[nH]4)c3c2)c1C [Example 111]
Result :: 73

Where these numbers come from: patent US20050090529A1
